# Test system: E. coli (NIHJ)
# experiment_notes: MIC, agar dilution, E. coli
# Format: cell-based
# test_settings: Escherichia coli, 20 h, read-out: Minimum Inhibitory Concentration (MIC)
experimental_endpoint: MIC (mg/L)
The answer is to be given in mg/L; state only the numeric part.

Check out these entries, answers already filled in.
CN[C@H](C)C(=O)N[C@@H](C(=O)N[C@@H]1C(=O)N2[C@@H]1SC(C)(C)[C@@H]2C(=O)O)c1ccc(O)cc1 [Compound 21]: 12.3
CC1(C)S[C@@H]2[C@H](NC(=O)[C@H](NC(=O)[C@H]3CCCCN3)c3ccc(O)cc3)C(=O)N2[C@H]1C(=O)O [Compound 7]: 25
CC1(C)S[C@@H]2[C@H](NC(=O)[C@H](NC(=O)[C@H]3CCN3)c3ccccc3)C(=O)N2[C@H]1C(=O)O [Compound 28]: 50
CC1(C)S[C@@H]2[C@H](NC(=O)[C@H](NC(=O)[C@H]3Cc4ccccc4CN3)c3ccccc3)C(=O)N2[C@H]1C(=O)O [Compound 15]: 25
CC1(C)S[C@@H]2[C@H](NC(=O)[C@H](NC(=O)[C@H]3CCCN3)c3ccc(O)cc3)C(=O)N2[C@H]1C(=O)O [Compound 3, monohydrate]: 6.2

QUERY: Fill in the blank: the reported MIC of CC(C)C[C@H](C(=O)N[C@@H](C(=O)N[C@@H]1C(=O)N2[C@@H]1SC(C)(C)[C@@H]2C(=O)O)c1ccccc1)N(C)C(=O)OCc1ccccc1 [Compound 24] is ____.
RESULT: 50

QUERY: Fill in the blank: the reported MIC of CC1(C)S[C@@H]2[C@H](NC(=O)[C@H](NC(=O)[C@H]3CCN3)c3ccc(O)cc3)C(=O)N2[C@H]1C(=O)O [Compound 29] is ____.
RESULT: 18.7

---

# Tested on: Proteus mirabilis (IFO 3849)
# experiment_notes: MIC, agar dilution, Proteus mirabilis
# Format: cell-based
# test_settings: Proteus mirabilis, IFO3849, 20 h, read-out: Minimum Inhibitory Concentration (MIC)
// reported MIC per item
The answer is to be given in µg/mL; state only the numeric part.

Check out these entries, answers already filled in.
CC1(C)S[C@@H]2[C@H](NC(=O)[C@H](NC(=O)[C@@H]3CCCN3)c3ccc(O)cc3)C(=O)N2[C@H]1C(=O)O: 9
CC1(C)S[C@@H]2[C@H](NC(=O)[C@H](NC(=O)[C@H]3CCN3)c3ccccc3)C(=O)N2[C@H]1C(=O)O: 6.2
CN(C(=O)OCc1ccccc1)[C@@H](C(=O)N[C@@H](C(=O)N[C@@H]1C(=O)N2[C@@H]1SC(C)(C)[C@@H]2C(=O)O)c1ccccc1)c1ccccc1: 25
CC1(C)S[C@@H]2[C@H](NC(=O)[C@H](NC(=O)[C@H]3CCCN3)c3ccc(O)cc3)C(=O)N2[C@H]1C(=O)O [Compound 3, monohydrate]: 2.2

Okay, now this compound:
QUERY: Fill in the blank: the reported MIC of CC1(C)S[C@@H]2[C@H](NC(=O)[C@H](NC(=O)[C@H]3CCCCN3)c3ccc(O)cc3)C(=O)N2[C@H]1C(=O)O is ____.
RESULT: 9

---

# Tested on: Staph. aureus (FDA 209P)
# experiment_notes: MIC, agar dilution, Staph. aureus
# Type: cell-based
# test_settings: Staphylococcus aureus, FDA209P, 20 h, read-out: Minimum Inhibitory Concentration (MIC)
experimental_endpoint: MIC (µg/mL)
The answer is to be given in µg/mL; state only the numeric part.

CC1(C)S[C@@H]2[C@H](NC(=O)[C@H](NC(=O)[C@H]3CCCN3)c3ccc(O)cc3)C(=O)N2[C@H]1C(=O)O [Compound 3, monohydrate]: 0.9
CC1(C)S[C@@H]2[C@H](NC(=O)[C@H](NC(=O)[C@H]3Cc4ccccc4CN3)c3ccccc3)C(=O)N2[C@H]1C(=O)O: 0.3

Okay, now this molecule:
QUERY: Fill in the blank: the reported MIC of Cc1ccc(S(=O)(=O)N(C)[C@H](C)C(=O)N[C@@H](C(=O)N[C@@H]2C(=O)N3[C@@H]2SC(C)(C)[C@@H]3C(=O)O)c2ccc(O)cc2)cc1 is ____.
RESULT: 0.31
